Entry source: the supplement of paper PMC11061612

Below, each entry is listed with its recorded combination Emax.
test system: TE-6 (Esophageal Squamous Cell Carcinoma); assay: combination Emax (second highest fraction inhibited in the dose matrix, 72 h); higher = more inhibition; extreme values may be limits of the assay
The reply should be a number, written without any unit.

Field: example entries. Status: answers known.
# compound, target.desc, measurement.name, test.result
measured = [
    ("Cc1cc2ncnn2cc1Nc1ncc2c(n1)n(C1CCOCC1)c(=O)n2C [AZD7648] + O=C(c1cc(Cc2n[nH]c(=O)c3ccccc23)ccc1F)N1CCN(C(=O)C2CC2)CC1 [Olaparib] (first compound max 10 µM, 7x7, partner max 10 µM)", "TE-6 (Esophageal Squamous Cell Carcinoma)", "combination Emax", 0.328),
    ("CC(=O)c1c(C)c2cnc(Nc3ccc(N4CCNCC4)cn3)nc2n(C2CCCC2)c1=O [Palbociclib] + Cn1cnc2c(F)c(Nc3ccc(Br)cc3Cl)c(C(=O)NOCCO)cc21 [Selumetinib] (first compound max 10 µM, 7x7, partner max 10 µM)", "TE-6 (Esophageal Squamous Cell Carcinoma)", "combination Emax", 0.425),
]

Exercise: Quickly give me recorded combination Emax for Cc1cc2ncnn2cc1Nc1ncc2c(n1)n(C1CCOCC1)c(=O)n2C [AZD7648] + CCN(CCO)CCCOc1ccc2c(Nc3cc(CC(=O)Nc4cccc(F)c4)[nH]n3)ncnc2c1 [AZD2811] (first compound max 10 µM, 7x7, partner max 1 µM)
Solution: 0.313

* * *

Recorded combination Emax, one value per entry.
test system: NCI-H2818 (Mesothelioma); test: combination Emax (second highest fraction inhibited in the dose matrix, 72 h); higher = more inhibition; extreme values may be limits of the assay

Worked examples, 3 compounds total:
# compound, target.desc, combination Emax
rows = [
    ("COc1cccc(OCCCN)c1-c1cc(Nc2cnc(C#N)cn2)n[nH]1 [Prexasertib] + Cc1cc2ncnn2cc1Nc1ncc2c(n1)n(C1CCOCC1)c(=O)n2C [AZD7648] (first compound max 1 µM, 7x7, partner max 10 µM)", "NCI-H2818 (Mesothelioma)", 0.344),
    ("Cc1cc2ncnn2cc1Nc1ncc2c(n1)n(C1CCOCC1)c(=O)n2C [AZD7648] + CCN(CCO)CCCOc1ccc2c(Nc3cc(CC(=O)Nc4cccc(F)c4)[nH]n3)ncnc2c1 [AZD2811] (first compound max 10 µM, 7x7, partner max 1 µM)", "NCI-H2818 (Mesothelioma)", 0.434),
    ("Cc1cc2ncnn2cc1Nc1ncc2c(n1)n(C1CCOCC1)c(=O)n2C [AZD7648] + C=CCn1c(=O)c2cnc(Nc3ccc(N4CCN(C)CC4)cc3)nc2n1-c1cccc(C(C)(C)O)n1 [AZD1775] (first compound max 10 µM, partner max 1 µM)", "NCI-H2818 (Mesothelioma)", 0.462),
]

Exercise: Output measured combination Emax for this item: CS(=O)(=O)CCNCc1ccc(-c2ccc3ncnc(Nc4ccc(OCc5cccc(F)c5)c(Cl)c4)c3c2)o1 [Lapatinib] + NC1(c2ccc(-c3nc4ccn5c(=O)[nH]nc5c4cc3-c3ccccc3)cc2)CCC1 [MK-2206] (first compound max 10 µM, 7x7, partner max 10 µM)
Solution: 0.351

* * *

The reader will find reported combination Emax values listed item by item below.
test system: SU-DHL-8 (B-Cell Non-Hodgkin's Lymphoma); test: combination Emax (second highest fraction inhibited in the dose matrix, 72 h); higher = more inhibition; extreme values may be limits of the assay
Enter the number alone.

Worked cases, combination Emax given:
# molecule, target.desc, test.result
measured = [
    ("CN(C)CCCOc1ccc(-c2ccc3ncc4c(c3c2)n(C2CCOCC2)c(=O)n4C)cn1 [AZD0156] + C=CCn1c(=O)c2cnc(Nc3ccc(N4CCN(C)CC4)cc3)nc2n1-c1cccc(C(C)(C)O)n1 [AZD1775] (first compound max 1 µM, partner max 1 µM)", "SU-DHL-8 (B-Cell Non-Hodgkin's Lymphoma)", 0.888),
    ("CC1(C)CCC(CN2CCN(c3ccc(C(=O)NS(=O)(=O)c4ccc(NCC5CCOCC5)c([N+](=O)[O-])c4)c(Oc4cnc5[nH]ccc5c4)c3)CC2)=C(c2ccc(Cl)cc2)C1 [Venetoclax] + C[C@@H](Nc1cc(F)cc(F)c1)c1cc(C(=O)N(C)C)cc2c(=O)cc(N3CCOCC3)oc12 [AZD8186] (first compound max 1 µM, 7x7, partner max 3 µM)", "SU-DHL-8 (B-Cell Non-Hodgkin's Lymphoma)", 0.254),
    ("COc1cccc2c1C(=O)c1c(O)c3c(c(O)c1C2=O)C[C@@](O)(C(=O)CO)C[C@@H]3O[C@H]1C[C@H](N)[C@H](O)[C@H](C)O1 [Doxorubicin] + Cc1cc2ncnn2cc1Nc1ncc2c(n1)n(C1CCOCC1)c(=O)n2C [AZD7648] (first compound max 1 µM, 7x7, partner max 10 µM)", "SU-DHL-8 (B-Cell Non-Hodgkin's Lymphoma)", 0.943),
]

In the following, a different molecule is considered.
Exercise: Tell us which combination Emax value is on record for Cc1c2c(nn1C)CSCc1cc(n(C)n1)CSc1cc(c3ccccc3c1)OCCCc1c(C(=O)O)n(C)c3c-2c(Cl)ccc13 [AZD5991] + CCN(CCO)CCCOc1ccc2c(Nc3cc(CC(=O)Nc4cccc(F)c4)[nH]n3)ncnc2c1 [AZD2811] (first compound max 1 µM, 7x7, partner max 1 µM)
Solution: 0.931

* * *

system: MFM-223 (Breast Carcinoma); experiment: Bliss excess, mean over the matrix (fraction); higher = more synergy;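 further: after 72 h of two-drug dosing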
measurement.name: Bliss excess
// print number alone

Worked set:
# compound, target.desc, Bliss excess
rows = [
    ("C=CCn1c(=O)c2cnc(Nc3ccc(N4CCN(C)CC4)cc3)nc2n1-c1cccc(C(C)(C)O)n1 [AZD1775] + O=C(c1cc(Cc2n[nH]c(=O)c3ccccc23)ccc1F)N1CCN(C(=O)C2CC2)CC1 [Olaparib] (first compound max 1 µM, partner max 10 µM)", "MFM-223 (Breast Carcinoma)", -0.0421),
    ("COc1nnc2ccc(N3CCC(c4ccc(OCCN5CCN(C)C(=O)[C@H]5C)cc4)CC3)nn12 [AZD5153] + CC1(C)CCC(CN2CCN(c3ccc(C(=O)NS(=O)(=O)c4ccc(NCC5CCOCC5)c([N+](=O)[O-])c4)c(Oc4cnc5[nH]ccc5c4)c3)CC2)=C(c2ccc(Cl)cc2)C1 [Venetoclax] (first compound max 1 µM, 7x7, partner max 1 µM)", "MFM-223 (Breast Carcinoma)", -0.0295),
    ("COc1cccc(OCCCN)c1-c1cc(Nc2cnc(C#N)cn2)n[nH]1 [Prexasertib] + C=CCn1c(=O)c2cnc(Nc3ccc(N4CCN(C)CC4)cc3)nc2n1-c1cccc(C(C)(C)O)n1 [AZD1775] (first compound max 1 µM, partner max 1 µM)", "MFM-223 (Breast Carcinoma)", 0.0825),
    ("CN(CCO)CC[C@H](CSc1ccccc1)Nc1ccc(S(=O)(=O)NC(=O)c2ccc(N3CCC([C@@H](O)c4ccccc4-c4ccc(Cl)cc4)CC3)cc2)cc1S(=O)(=O)C(F)(F)F [AZD4320] + C[C@@H](Nc1cc(F)cc(F)c1)c1cc(C(=O)N(C)C)cc2c(=O)cc(N3CCOCC3)oc12 [AZD8186] (first compound max 1 µM, 7x7, partner max 3 µM)", "MFM-223 (Breast Carcinoma)", -0.0059),
]

Exercise: Determine its reported Bliss excess: NC1(C(=O)N[C@@H](CCO)c2ccc(Cl)cc2)CCN(c2ncnc3[nH]ccc23)CC1 [Capivasertib] + Cn1cnc2c(F)c(Nc3ccc(Br)cc3Cl)c(C(=O)NOCCO)cc21 [Selumetinib] (first compound max 10 µM, 7x7, partner max 10 µM)
Solution: 0.0276

Exercise: Identify the reported Bliss excess for the following entry. Cn1cnc2c(F)c(Nc3ccc(Br)cc3Cl)c(C(=O)NOCCO)cc21 [Selumetinib] + CCN(CCO)CCCOc1ccc2c(Nc3cc(CC(=O)Nc4cccc(F)c4)[nH]n3)ncnc2c1 [AZD2811] (first compound max 10 µM, 7x7, partner max 1 µM)
Solution: -0.0363

Exercise: Give the value of Bliss excess reported for the following: Cc1cc2ncnn2cc1Nc1ncc2c(n1)n(C1CCOCC1)c(=O)n2C [AZD7648] + O=C(c1cc(Cc2n[nH]c(=O)c3ccccc23)ccc1F)N1CCN(C(=O)C2CC2)CC1 [Olaparib] (first compound max 10 µM, 7x7, partner max 10 µM)
Solution: -0.0131

* * *

tested on: NCI-H2818 (Mesothelioma); test: combination Emax (second highest fraction inhibited in the dose matrix, 72 h); higher = more inhibition; extreme values may be limits of the assay
# combination Emax listing for each entry below
Hey, just send me the number, nothing else.

Solved cases below.
# compound, measurement.name, test.result
rows = [
    ("CC1(C)CCC(CN2CCN(c3ccc(C(=O)NS(=O)(=O)c4ccc(NCC5CCOCC5)c([N+](=O)[O-])c4)c(Oc4cnc5[nH]ccc5c4)c3)CC2)=C(c2ccc(Cl)cc2)C1 [Venetoclax] + C[C@@H](Nc1cc(F)cc(F)c1)c1cc(C(=O)N(C)C)cc2c(=O)cc(N3CCOCC3)oc12 [AZD8186] (first compound max 1 µM, 7x7, partner max 3 µM)", "combination Emax", 0.129),
    ("CS(=O)(=O)CCNCc1ccc(-c2ccc3ncnc(Nc4ccc(OCc5cccc(F)c5)c(Cl)c4)c3c2)o1 [Lapatinib] + C[C@@H](Oc1cc(-c2cnn(C3CCNCC3)c2)cnc1N)c1c(Cl)ccc(F)c1Cl [Crizotinib] (first compound max 10 µM, 7x7, partner max 10 µM)", "combination Emax", 0.59),
]

// moving on: another record for combination Emax
Exercise: Indicate the recorded combination Emax value for this compound: COc1nnc2ccc(N3CCC(c4ccc(OCCN5CCN(C)C(=O)[C@H]5C)cc4)CC3)nn12 [AZD5153] + C=CCn1c(=O)c2cnc(Nc3ccc(N4CCN(C)CC4)cc3)nc2n1-c1cccc(C(C)(C)O)n1 [AZD1775] (first compound max 1 µM, partner max 1 µM)
Solution: 0.327
